test: qHTS RealTime-Glo MT Cell Viability Assay in HEK293 cells - 40 hour (AID 1224874); details: RealTime-Glo luminescence; stronger effect = lower value; note: % is set by controls: 0 for no effect and ±100 for the full control effect; nearly all actives have a fitted effect of over 50% in size
Inconclusive results are not listed. The source made the active and inactive calls. Calls come from the whole dose curve; as a rule, active = well fitted cell-killing curve with a large enough effect in the repeat runs; inconclusive = weak or mixed curves, or effect the other way; inactive = flat fitted curve, though single readings scatter.
measured_endpoint: max response

Ask: Give the measured max response of C=C[C@@H](C)CCC=C(C)C .
Reply: 9.85% (inactive)

Ask: What measured max response goes with Cc1oc(=O)oc1CN1CCN(c2cc3c(cc2F)c(=O)c(C(=O)O)c2n3C(C)S2)CC1 (configuration not stated) ?
Reply: 5.9% (inactive)

Ask: Could you share which max response value was measured for O=c1[nH]c(=O)c2ccccc2o1 ?
Reply: 1.98% (inactive)

Ask: # get_value(readout='max response', item= COc1ccc(/C=N/NC(=O)c2ccncc2)cc1OC )
Reply: -6.3% (inactive)

Ask: I have this compound here, CCCCCC(=O)OCC , and I need its recorded max response.
Reply: 5.39% (inactive)

Ask: Which value of max response has been reported for CCC1COC(=O)O1 (configuration not stated) in the records?
Reply: -0.285% (inactive)

Ask: Endpoint output: max response of CC(C)C(=O)Nc1cccc(C(F)(F)F)c1 . Value?
Reply: -2.33% (inactive)

====

test: qHTS RealTime-Glo MT Cell Viability Assay in HEK293 cells - 16 hour (AID 1224872); settings: RealTime-Glo luminescence; series mostly up to 76.8 µM; note: top concentration of the series differs between compounds; % is set by controls: 0 for no effect and ±100 for the full control effect; nearly all actives have a fitted effect of over 50% in size
Inconclusive results are not listed. Activity calls are given as the source filed them. The call rests on the fitted dose curve; in most records, active means well fitted cell-killing curve with a large enough effect in the repeat runs; inconclusive means weak or mixed curves, or effect the other way; inactive means flat fitted curve, though single readings scatter.
measured_endpoint: activity change, negative = cytotoxicity

CCC(C)(CCC(C)C)C(=O)[O-].CCC(C)(CCC(C)C)C(=O)[O-].[Zn+2] (centres undefined); inactive
CCN(CC)C(=O)C1CN2CCc3cc(OC)c(OC)cc3C2CC1OC(C)=O (centres undefined); inactive
O=C1c2ccccc2-c2ccccc21; inactive
C=CCOCC(CO)(COCC=C)COCC=C; inactive

====

experiment: qHTS assay for identifying genotoxic compounds that show differential cytotoxicity against isogenic chicken DT40 cell lines with known DNA damage response pathways - wild type cell line (AID 743012); settings: DT40 wild type chicken cells viability, CellTiter-Glo, 40 h; series mostly up to 68.4 µM; note: nearly all actives have a fitted effect of over 60% in size
Results filed as inconclusive are left out. Calls of active or inactive are those of the source. Calls follow the shape of the dose curve; as a rule, active = well fitted cell-killing curve with a large enough effect in the repeat runs; inconclusive = weak or mixed curves, or effect the other way; inactive = no such curve, though single readings can be large or run the other way.
Write down one outcome, taken from y (active), n (inactive)

Ask: Tell me the assay call for NS(=O)(=O)c1ccccc1OC(F)(F)F please.
Reply: n

Ask: Would you mind telling me which call this test gave CC(C)(C)NCCO ?
Reply: n

Ask: Could you check what this test reported for C[N+](C)(C)CC(O)CCl (stereo not drawn) ?
Reply: n

Ask: Given C=CCOc1cc(Cl)ccc1C(=O)NCCN(CC)CC , state the outcome it received in this test.
Reply: y

Ask: What was the test verdict on CCC(CO)CO ?
Reply: n

Ask: Status in this test for COc1cc2c3cc1Oc1cc(ccc1O)C[C@@H]1c4c(cc(OC)c(O)c4Oc4ccc(cc4)C[C@@H]3N(C)CC2)CC[N+]1(C)C ?
Reply: n

Ask: Outcome logged for CCCCCCCC/C=C\CCCCCCCC(=O)OC[C@@H](O)[C@H]1OC[C@H](O)[C@H]1O in this assay:
Reply: n

Ask: Per the records of this test, what outcome belongs to CCCCC[Si](OCC)(OCC)OCC ?
Reply: n

Ask: // return assay outcome for C1CCN2C[C@@H]3C[C@@H](CN4CCCC[C@@H]34)[C@H]2C1
Reply: n

Ask: Record lookup: outcome of this test for C=C[C@@H](C)CCC=C(C)C ?
Reply: n

Ask: What call does the record list for CCCCC(CC)COC(=O)c1ccccc1 (stereo not drawn) ?
Reply: n

Ask: Record lookup: outcome of this test for Cc1ccc(S(=O)(=O)NC(=O)NC2CCCCCCC2)cc1 ?
Reply: n

Ask: Any idea what this test logged for CCCCCCCCCCCCC ?
Reply: n
